Reported log10 AUC(0-inf) is given for each of the following molecules.
Test: Pharmacokinetic determination in rats (IV and PO, plasma, LCMS/MS)
Format: in vivo, SD rats
Conditions: rat, in vivo; PO, 30 mg/kg, male SD rats, overnight fasting, plasma; read-out: AUCo-∞
Please be aware that the numbers have been log10-transformed from AUC(0-inf) in ng·h/mL.

C#Cc1c(F)ccc2cc(O)cc(-c3nc4c5c(nc(OCC6(CN7CCCC(=C(F)F)CC7)CC6)nc5c3F)N3C[C@H]5CC[C@H](N5)[C@H]3[C@H](CC)O4)c12 [Example 140]; 3.36
C#Cc1c(F)ccc2cc(O)cc(-c3nc4c5c(nc(OCC6(CN7CCC(=NOC)CC7)CC6)nc5c3F)N3C[C@H]5CC[C@H](N5)[C@H]3[C@H](C)O4)c12 [Example 35-1]; 2.78
C#Cc1c(F)ccc2cc(O)cc(-c3nc4c5c(nc(OCC6(CN7CC8CC(=C(F)F)CC8C7)CC6)nc5c3F)N3C[C@H]5CC[C@H](N5)[C@H]3[C@H](C)O4)c12 (some centres unmarked) [Example 133]; 3.81
[2H]C([2H])([2H])[C@@H]1Oc2nc(-c3cc(N)cc(Cl)c3C(F)(F)F)c(F)c3nc(OCC4(CN5CCC(=NOC)CC5)CC4)nc(c23)N2C[C@H]3CC[C@H](N3)[C@@H]12 [Example 339]; 2.34

[in] What value of measured log10 AUC(0-inf) is listed for [2H]C([2H])([2H])[C@@H]1Oc2nc(-c3cc(O)cc4ccc(F)c(C#C)c34)c(F)c3nc(OCC4(CN5CCC(=CF)CC5)CC4)nc(c23)N2C[C@H]3CC[C@H](N3)[C@@H]12 [Example 164] ?
[out] 3.20

The measured values listed here are drawn from patent EP4635958A1.
